test system: HCT-15; assay: Growth inhibition of human HCT15 cells by SRB assay; type: functional
The source made the active and inactive calls. The calls are words filed in the database; no cut-off is given here.
reported metric: GI50

For orientation, consider the following solved cases.
| compound | GI50 |
| --- | --- |
| CCCCCCCCCCCCCCCC(=O)Nc1ccc([N+](C)(C)C)cc1 | 2.37 µM |
| CCCCCCCCCCCCCC(=O)N1CCC[N+](C)(CC)CC1 (stereo not given) | 1.86 µM |
| CCCCCCCCCCCCS(=O)(=O)N1CCC[N+](C)(C)CC1 | 0.96 µM |
| CCCCCCCCCCCCCC(=O)Nc1ccc([N+](C)(C)C)cc1 | 1.36 µM |
| CCCCCCCCCCCCS(=O)(=O)Nc1ccc([N+](C)(C)C)cc1 | inactive |

Task: Which GI50 reading was recorded for the compound CCCCCCCCCCCCCC(=O)N1CCC[N+](C)(Cc2ccc(F)cc2)CC1 (stereo not given) ?
Result: inactive

###

system: NUGC-3; assay: Growth inhibition of human NUGC3 cells by SRB assay; type: functional
reported metric: log10 GI50 (log10 of the value in nM)
// stored as log10 of GI50 expressed in nM

Task: Record CCCCCCCCCCCCCCS(=O)(=O)N1CCC[N+](C)(C)CC1 : what is its log10 GI50 with NUGC-3?
Result: 2.40

Task: Record CCCCCCCCCCCCCCCCCC(=O)N1CCC[N+](C)(C)CC1 : what is its log10 GI50 with NUGC-3?
Result: 2.41

Task: Record CCCCCCCCCCCCS(=O)(=O)N1CCC[N+](C)(C)CC1 : what is its log10 GI50 with NUGC-3?
Result: 2.38

Task: Record C=CC[N+]1(C)CCCN(C(=O)CCCCCCCCCCCCC)CC1 (stereo unspecified) : what is its log10 GI50 with NUGC-3?
Result: 2.41

Task: Record CCCCCCCCCCCCCCS(=O)(=O)Nc1ccc([N+](C)(C)C)cc1 : what is its log10 GI50 with NUGC-3?
Result: 3.24

Task: Record CCCCCCCCCCCCCCCC(=O)N1CC[N+](C)(C)CC1 : what is its log10 GI50 with NUGC-3?
Result: 2.46

Task: Record CCCCCCCCCCCCS(=O)(=O)Nc1ccc([N+](C)(C)C)cc1 : what is its log10 GI50 with NUGC-3?
Result: 3.08

Task: Record CCCCCCCCCCCCCC(=O)N1CCC[N+](C)(C)CC1 : what is its log10 GI50 with NUGC-3?
Result: 1.90

Task: Record CCCCCCCCCCCCCC(=O)Nc1ccc([N+](C)(C)C)cc1 : what is its log10 GI50 with NUGC-3?
Result: 2.87

Task: Record CCCCCCCCCCCCCCCC(=O)N1CCC[N+](C)(C)CC1 : what is its log10 GI50 with NUGC-3?
Result: 2.32

Task: Record CCCCCCCCCCCCCCCCCCCC(=O)Nc1ccc([N+](C)(C)C)cc1 : what is its log10 GI50 with NUGC-3?
Result: 3.11

Task: Record CCCCCCCCCCCCCC(=O)N1CCC[N+](C)(CC)CC1 (stereo unspecified) : what is its log10 GI50 with NUGC-3?
Result: 2.34

Task: Record CCCCCCCCCCCCCC(=O)N1CCC[N+](C)(Cc2ccc(F)cc2)CC1 (stereo unspecified) : what is its log10 GI50 with NUGC-3?
Result: 2.97

Task: Record CCCCCCCCCCCCCCCC(=O)N1CCC[N+](C)(Cc2cccc(OC(F)(F)F)c2)CC1 (stereo unspecified) : what is its log10 GI50 with NUGC-3?
Result: 2.94

Task: Record CCCCCCCCCCCCCCCCCCOP(=O)([O-])OC1CC[N+](C)(C)CC1 : what is its log10 GI50 with NUGC-3?
Result: 2.73

Task: Record CCCCCCCCCCCCCCCCCC(=O)Nc1ccc([N+](C)(C)C)cc1 : what is its log10 GI50 with NUGC-3?
Result: 2.61

Task: Record CCCCCCCCCCCCCC(=O)N1CCC[N+](C)(Cc2ccccc2)CC1 (stereo unspecified) : what is its log10 GI50 with NUGC-3?
Result: 2.49

Task: Record CCCCCCCCCCCCCCCCS(=O)(=O)N1CCC[N+](C)(C)CC1 : what is its log10 GI50 with NUGC-3?
Result: 2.58

Task: Record CCCCCCCCCCCCCC(=O)N1CCC[N+](C)(Cc2cccc([N+](=O)[O-])c2)CC1 (stereo unspecified) : what is its log10 GI50 with NUGC-3?
Result: 2.66

Task: Record CCCCCCCCCCCCCCCCCCCC(=O)N1CCC[N+](C)(C)CC1 : what is its log10 GI50 with NUGC-3?
Result: 2.56

Task: Record CCCCCCCCCCCCCCCC(=O)Nc1ccc([N+](C)(C)C)cc1 : what is its log10 GI50 with NUGC-3?
Result: 2.85

###

system: MDA-MB-231; assay: Growth inhibition of human MDA-MB-231 cells by SRB assay; assay type: functional
Measured GI50 by item

For orientation, consider the following solved cases.
| compound | result |
| --- | --- |
| CCCCCCCCCCCCCC(=O)N1CCC[N+](C)(Cc2ccccc2)CC1 (centres undefined) | 1160 nM |
| CCCCCCCCCCCCCC(=O)Nc1ccc([N+](C)(C)C)cc1 | 3560 nM |
| CCCCCCCCCCCCCCCC(=O)Nc1ccc([N+](C)(C)C)cc1 | 2830 nM |

Task: Which GI50 reading was recorded for the compound CCCCCCCCCCCCCCCC(=O)N1CCC[N+](C)(Cc2cccc(OC(F)(F)F)c2)CC1 (centres undefined) ?
Result: 1340 nM

Task: Which GI50 reading was recorded for the compound CCCCCCCCCCCCCC(=O)N1CCC[N+](C)(CC)CC1 (centres undefined) ?
Result: 680 nM

###

tested on: HCT-15; assay: Growth inhibition of human HCT15 cells by SRB assay; format: functional
The source made the active and inactive calls. No cut-off for these calls is given here.
reported metric: GI50

| compound | result |
| --- | --- |
| CCCCCCCCCCCCCC(=O)N1CCC[N+](C)(Cc2cccc([N+](=O)[O-])c2)CC1 (centres undefined) | inactive |
| CCCCCCCCCCCCCCS(=O)(=O)N1CCC[N+](C)(C)CC1 | 380 nM |
| CCCCCCCCCCCCCCCCCCCC(=O)Nc1ccc([N+](C)(C)C)cc1 | 3020 nM |
| CCCCCCCCCCCCCCS(=O)(=O)Nc1ccc([N+](C)(C)C)cc1 | 3380 nM |

Task: Which GI50 reading was recorded for the compound CCCCCCCCCCCCCCCC(=O)N1CCC[N+](C)(Cc2cccc(OC(F)(F)F)c2)CC1 (centres undefined) ?
Result: inactive

Task: Which GI50 reading was recorded for the compound CCCCCCCCCCCCCCCCCCCC(=O)N1CCC[N+](C)(C)CC1 ?
Result: 990 nM

Task: Which GI50 reading was recorded for the compound CCCCCCCCCCCCCCCCCC(=O)Nc1ccc([N+](C)(C)C)cc1 ?
Result: 1220 nM

Task: Which GI50 reading was recorded for the compound CCCCCCCCCCCCCCCC(=O)N1CCC[N+](C)(C)CC1 ?
Result: 930 nM

Task: Which GI50 reading was recorded for the compound C=CC[N+]1(C)CCCN(C(=O)CCCCCCCCCCCCC)CC1 (centres undefined) ?
Result: inactive

Task: Which GI50 reading was recorded for the compound CCCCCCCCCCCCCCCCCC(=O)N1CCC[N+](C)(C)CC1 ?
Result: 400 nM

Task: Which GI50 reading was recorded for the compound CCCCCCCCCCCCCC(=O)N1CCC[N+](C)(Cc2ccccc2)CC1 (centres undefined) ?
Result: inactive

Task: Which GI50 reading was recorded for the compound CCCCCCCCCCCCCCCCS(=O)(=O)N1CCC[N+](C)(C)CC1 ?
Result: 770 nM

Task: Which GI50 reading was recorded for the compound CCCCCCCCCCCCCCCC(=O)N1CC[N+](C)(C)CC1 ?
Result: 580 nM

Task: Which GI50 reading was recorded for the compound CCCCCCCCCCCCCC(=O)N1CCC[N+](C)(C)CC1 ?
Result: 1700 nM

###

system: MDA-MB-231; test: Growth inhibition of human MDA-MB-231 cells by SRB assay; format: functional
reported metric: GI50

Task: Which GI50 reading was recorded for the compound CCCCCCCCCCCCCCCCCCCC(=O)N1CCC[N+](C)(C)CC1 ?
Result: 2220 nM

Task: Which GI50 reading was recorded for the compound CCCCCCCCCCCCCCCCCCCC(=O)Nc1ccc([N+](C)(C)C)cc1 ?
Result: 3680 nM

Task: Which GI50 reading was recorded for the compound CCCCCCCCCCCCCC(=O)N1CCC[N+](C)(Cc2cccc([N+](=O)[O-])c2)CC1 (centres undefined) ?
Result: 710 nM
